target: human TLR9 (Homo sapiens, UniProt Q9NR96); test: TLR9 inhibition reporter assay (HEK-Blue SEAP reporter, ODN2006 stimulation); settings: HEK-Blue cells overexpressing human TLR9, SEAP reporter, ODN2006 5 nM, 22 hour incubation
Labelling: IC50 reported below 9 µM becomes met; at or above becomes not met.

I wonder whether `CNC(=O)CN1CCC(c2ccc3[nH]c(-c4cn(C)c(=O)c(C)c4C)c(C(C)C)c3c2)CC1` has IC50 below 9 µM. Can you tell?
not met

Also check `Cc1c(-c2[nH]c3ccc(C4CCN(CC(=O)N(C)C)CC4)cc3c2C(C)C)cc(C#N)c(=O)n1C`
met

Also check `CNC(=O)CN1CCC(c2ccc3[nH]c(-c4cc(C)c(=O)n(C)c4)c(C(C)C)c3c2)CC1`
not met

Also check `Cc1c(-c2[nH]c3ccc(C4CCN(C(C)(C)C(N)=O)CC4)cc3c2C(C)C)cn(C)c(=O)c1Cl`
not met

Also check `Cc1c(-c2[nH]c3ccc(C4CCN(C5COC5)CC4)cc3c2C(C)C)cc(C#N)c(=O)n1C`
not met

---
I wonder whether `Cc1c(-c2[nH]c3ccc(C4CCN(C5CCOCC5)CC4)cc3c2C(C)C)cn(C)c(=O)c1C#N` has IC50 below 9 µM. Can you tell?
met

Also check `CC(C)c1c(-c2cn(C)c(=O)cn2)[nH]c2ccc(C3CCNCC3)cc12`
met

---

pIC50 overview
Target: UniProt:Q9NR96
Sequence (Q9NR96 26-1032): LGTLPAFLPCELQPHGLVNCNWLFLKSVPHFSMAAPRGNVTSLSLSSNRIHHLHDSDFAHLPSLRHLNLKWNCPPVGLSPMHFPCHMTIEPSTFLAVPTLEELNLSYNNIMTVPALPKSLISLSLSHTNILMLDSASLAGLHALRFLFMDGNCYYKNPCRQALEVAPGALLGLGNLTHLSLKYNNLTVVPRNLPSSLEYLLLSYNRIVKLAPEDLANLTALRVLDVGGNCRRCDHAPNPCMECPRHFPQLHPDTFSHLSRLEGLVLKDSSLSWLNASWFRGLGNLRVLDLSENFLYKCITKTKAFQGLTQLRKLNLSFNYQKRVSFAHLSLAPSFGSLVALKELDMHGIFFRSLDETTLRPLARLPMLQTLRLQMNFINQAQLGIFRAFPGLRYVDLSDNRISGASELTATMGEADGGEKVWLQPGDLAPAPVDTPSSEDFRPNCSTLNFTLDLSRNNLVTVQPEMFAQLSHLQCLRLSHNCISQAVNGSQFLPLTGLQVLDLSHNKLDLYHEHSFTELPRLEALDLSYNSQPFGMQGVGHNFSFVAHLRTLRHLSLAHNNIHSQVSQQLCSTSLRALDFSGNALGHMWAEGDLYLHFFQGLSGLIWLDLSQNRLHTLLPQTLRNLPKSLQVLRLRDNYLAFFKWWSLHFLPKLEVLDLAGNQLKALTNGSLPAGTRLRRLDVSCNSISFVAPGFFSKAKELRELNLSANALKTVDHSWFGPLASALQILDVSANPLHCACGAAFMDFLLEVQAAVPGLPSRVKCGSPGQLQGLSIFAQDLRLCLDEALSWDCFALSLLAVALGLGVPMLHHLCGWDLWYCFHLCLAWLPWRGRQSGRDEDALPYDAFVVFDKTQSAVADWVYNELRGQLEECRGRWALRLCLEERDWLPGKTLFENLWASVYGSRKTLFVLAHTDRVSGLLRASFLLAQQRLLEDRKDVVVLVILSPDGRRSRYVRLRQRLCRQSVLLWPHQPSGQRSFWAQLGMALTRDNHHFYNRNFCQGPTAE
Experiment: TLR9 inhibition reporter assay (HEK-Blue SEAP reporter, ODN2006 stimulation)
Conditions: HEK-Blue cells overexpressing human TLR9, SEAP reporter, ODN2006 5 nM, 22 hour incubation
Scale note: pIC50 = -log10(concentration in M).

Would you kindly share the measured pIC50 for Cc1c(-c2[nH]c3ccc(C4CCN(C(C)C)CC4)cc3c2C(C)C)cn(C)c(=O)c1Cl [Example 238] ?
5.08

Also check Cc1c(-c2[nH]c3ccc(C4CCN(CC(C)(C)O)CC4)c(F)c3c2C(C)C)cn(C)c(=O)c1Cl [Example 327]
5.48

Also check CCn1cc(-c2[nH]c3ccc(C4CCN(C5CCOCC5)CC4)cc3c2C(C)C)c(C)c(C)c1=O [Example 208]
5.51

Also check Cc1nc(-c2[nH]c3ccc(C4CCN(C5COC5)CC4)cc3c2C(C)C)cn(C)c1=O [Example 186]
5.17

Also check Cc1cc(-c2cc(-c3[nH]c4ccc(C5CCN(C(C)C)CC5)cc4c3C(C)C)cn(C)c2=O)cnc1F [Example 343]
5.93

Also check Cc1c(-c2[nH]c3ccc(C4CCN(CC(=O)N(C)C)CC4)c(F)c3c2C(C)C)cn(C)c(=O)c1Cl [Example 158]
5.45

Also check Cc1cc(-c2[nH]c3ccc(C4CCN(C(=O)C(C)(C)N)CC4)cc3c2C(C)C)cn(C)c1=O [Example 296]
5.37

Also check CC(C)c1c(-c2ccc(=O)n(C)c2)[nH]c2ccc(C3CCNCC3)cc12 [Example 1]
6.21

Also check CCCN1CCC(c2ccc3[nH]c(-c4cc(-c5cncnc5)c(=O)n(CC)c4)c(C(C)C)c3c2)CC1 [Example 260]
5.65

Also check Cc1c(-c2[nH]c3ccc(C4CCN(C5COC5)CC4)cc3c2C(C)C)nn(C)c(=O)c1C [Example 203]
4.77

---
Would you kindly share the measured pIC50 for Cc1cc(-c2[nH]c3ccc(C4CCN(C)CC4)cc3c2C(C)C)cn(CC(F)(F)F)c1=O [Example 265] ?
5.30

Also check Cc1c(-c2[nH]c3ccc(C4CCN(C(C)C)CC4)cc3c2C(C)C)cn(C)c(=O)c1C [Example 212]
4.90

Also check Cc1cc(-c2[nH]c3ccc(C4CCN(C(=O)[C@@H]5C[C@@H](O)CN5C)CC4)cc3c2C(C)C)cn(C)c1=O [Example 289]
5.28

Also check COc1c(C)c(-c2[nH]c3ccc(C4CCN(CC(C)(C)O)CC4)cc3c2C(C)C)cn(C)c1=O [Example 317]
5.45

Also check Cc1nc(-c2[nH]c3ccc(C4CCN(C(=O)CN(C)C)CC4)cc3c2C(C)C)cn(C)c1=O [Example 295]
5.01

Also check COc1cc(-c2[nH]c3ccc(C4CCN(C5COC5)CC4)cc3c2C(C)C)cn(C)c1=O [Example 202]
5.25

Also check Cc1cc(-c2[nH]c3ccc(C4CCN(C(C)C)CC4)cc3c2C(C)C)c(C)n(C)c1=O [Example 214]
5.24

---

Molecular target: UniProtKB Q9NR97
Sequence (Q9NR97 27-1041): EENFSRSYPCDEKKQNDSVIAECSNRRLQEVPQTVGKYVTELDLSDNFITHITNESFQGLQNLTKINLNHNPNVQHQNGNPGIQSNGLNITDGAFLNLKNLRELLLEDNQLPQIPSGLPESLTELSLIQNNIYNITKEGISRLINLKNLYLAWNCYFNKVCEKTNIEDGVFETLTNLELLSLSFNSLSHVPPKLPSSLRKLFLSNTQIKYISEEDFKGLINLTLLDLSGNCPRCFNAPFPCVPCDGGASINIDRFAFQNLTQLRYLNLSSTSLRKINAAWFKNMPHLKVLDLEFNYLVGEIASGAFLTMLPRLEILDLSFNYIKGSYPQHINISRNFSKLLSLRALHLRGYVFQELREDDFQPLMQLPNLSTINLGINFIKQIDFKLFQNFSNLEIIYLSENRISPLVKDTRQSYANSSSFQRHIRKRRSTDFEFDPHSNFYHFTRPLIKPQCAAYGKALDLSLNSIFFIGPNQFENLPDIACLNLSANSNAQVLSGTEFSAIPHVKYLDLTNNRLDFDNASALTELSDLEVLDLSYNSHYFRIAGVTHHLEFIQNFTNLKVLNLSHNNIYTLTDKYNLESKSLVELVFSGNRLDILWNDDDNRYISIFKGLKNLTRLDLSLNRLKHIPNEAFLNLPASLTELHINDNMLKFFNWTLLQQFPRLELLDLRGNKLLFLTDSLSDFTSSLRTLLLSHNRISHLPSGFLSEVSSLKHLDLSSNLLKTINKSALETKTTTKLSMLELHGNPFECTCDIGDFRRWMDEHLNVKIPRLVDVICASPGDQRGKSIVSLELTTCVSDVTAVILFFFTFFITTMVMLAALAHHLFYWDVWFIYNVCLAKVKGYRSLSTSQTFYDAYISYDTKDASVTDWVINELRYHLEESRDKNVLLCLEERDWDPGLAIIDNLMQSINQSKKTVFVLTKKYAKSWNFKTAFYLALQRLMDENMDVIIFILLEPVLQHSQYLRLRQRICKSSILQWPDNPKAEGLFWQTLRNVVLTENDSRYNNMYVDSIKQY
Experiment: TLR8 inhibition reporter assay (HEK-Blue SEAP reporter, R848 stimulation)
Conditions: HEK-Blue cells overexpressing human TLR8, SEAP reporter, R848 15.9 μM, 22 hour incubation
Excerpt: TLR7/8/9 Inhibition Reporter Assays HEK-Blue™-cells (Invivogen) overexpressing human TLR7, TLR8 or TLR9 receptors were used for screening inhibitors of these receptors using an inducible SEAP (secreted embryonic alkaline phosphatase) reporter gene under the control of the IFN-β minimal promoter fused to five NF-κB and AP-1-binding sites. […]
MEASURE: pIC50
Scale note: pIC50 = -log10(concentration in M).

Could you share what pIC50 was measured for Cc1cc(-c2[nH]c3ccc(C4CCN(CC(O)C(C)(C)C)CC4)cc3c2C(C)C)cn(C)c1=O (stereo not shown) , tested on UniProtKB Q9NR97?
8.37

Also check `Cc1c(-c2[nH]c3ccc(C4CCN(C(CCO)CCO)CC4)cc3c2C(C)C)cn(C)c(=O)c1Cl`
8.04

Also check `CC(C)c1c(-c2cc(-c3cncnc3)c(=O)n(C)c2)[nH]c2ccc(C3CCN(CCS(C)(=O)=O)CC3)cc12`
8.70

For the next question, use this molecule.
Could you share what pIC50 was measured for Cc1cc(-c2[nH]c3ccc(C4CCN(C5CCC(C(F)(F)F)CC5)CC4)cc3c2C(C)C)cn(C)c1=O (stereo not shown) [Example 230] , tested on UniProtKB Q9NR97?
7.64

---

target: UniProtKB Q9NR97; test: TLR8 inhibition reporter assay (HEK-Blue SEAP reporter, R848 stimulation); details: HEK-Blue cells overexpressing human TLR8, SEAP reporter, R848 15.9 μM, 22 hour incubation
MEASURE: pIC50
Scale note: pIC50 = -log10(concentration in M).

Recorded results for 10 compounds are shown here.
Would you kindly share the measured pIC50 for `Cc1c(-c2[nH]c3ccc(C4CCN(C)CC4)cc3c2C(C)C)cn(C)c(=O)c1Cl` ?
8.43

Also check `CCn1cc(-c2[nH]c3ccc(C4CCN(C(=O)CN(C)C)CC4)cc3c2C(C)C)c(C)c(C)c1=O`
7.53

Also check `CCc1cc(-c2[nH]c3ccc(C4CCNCC4)cc3c2C(C)C)c(C)n(CC)c1=O`
8.17

Also check `CCc1cc(-c2[nH]c3ccc(C4CCN(CC(=O)N(C)C)CC4)cc3c2C(C)C)cn(C)c1=O`
7.99

Also check `Cc1cc(-c2[nH]c3ccc(C4CCN(CC(=O)NCC(C)(C)O)CC4)cc3c2C(C)C)cn(C)c1=O`
7.95

Also check `CNC(=O)CN1CCC(c2ccc3[nH]c(-c4cc(OC)c(=O)n(C)c4)c(C(C)C)c3c2)CC1`
8.10

Also check `COCc1cc(-c2[nH]c3ccc(C4CCN(CC(=O)N(C)C)CC4)cc3c2C(C)C)cn(C)c1=O`
6.87

Also check `Cc1cc(-c2[nH]c3ccc(C4CCN(CC(=O)N5CCCC5)CC4)cc3c2C(C)C)cn(C)c1=O`
7.80

Also check `Cc1c(-c2[nH]c3ccc(C4CCN(CC(C)(C)O)CC4)cc3c2C(C)C)cc(C#N)c(=O)n1C`
8.80

Also check `CCn1cc(-c2[nH]c3ccc(C4CCN(C5COC5)CC4)cc3c2C(C)C)c(C)c(C)c1=O`
7.74

---
Would you kindly share the measured pIC50 for `CC(C)c1c(-c2cc(-c3cccnc3)c(=O)n(C)c2)[nH]c2ccc(C3CCN(C(C)C)CC3)cc12` ?
8.28

Also check `Cc1c(-c2[nH]c3ccc(C4CCN(CC(=O)N(C)C)CC4)cc3c2C(C)C)cn(C)c(=O)c1C`
8.06

Also check `CC(C)c1c(-c2cc(-c3cccc(C(N)=O)c3)c(=O)n(C)c2)[nH]c2ccc(C3CCNCC3)cc12`
6.65

Also check `Cc1cc(-c2[nH]c3ccc(C4CCN(C(=O)CN(C)C)CC4)cc3c2C(C)C)c(C)n(C)c1=O`
8.23

Also check `Cc1c(-c2[nH]c3ccc(C4CCN(C(C)C)CC4)cc3c2C(C)C)cn(C)c(=O)c1Cl`
7.93
